Give pIC50 for every item shown.
- SYSTEM: hCRTH2 receptor (Homo sapiens, UniProt Q9Y5Y4)
- Construct: expressed in transfected cells; host or cells: HEK293
- Sequence (Q9Y5Y4 1-395): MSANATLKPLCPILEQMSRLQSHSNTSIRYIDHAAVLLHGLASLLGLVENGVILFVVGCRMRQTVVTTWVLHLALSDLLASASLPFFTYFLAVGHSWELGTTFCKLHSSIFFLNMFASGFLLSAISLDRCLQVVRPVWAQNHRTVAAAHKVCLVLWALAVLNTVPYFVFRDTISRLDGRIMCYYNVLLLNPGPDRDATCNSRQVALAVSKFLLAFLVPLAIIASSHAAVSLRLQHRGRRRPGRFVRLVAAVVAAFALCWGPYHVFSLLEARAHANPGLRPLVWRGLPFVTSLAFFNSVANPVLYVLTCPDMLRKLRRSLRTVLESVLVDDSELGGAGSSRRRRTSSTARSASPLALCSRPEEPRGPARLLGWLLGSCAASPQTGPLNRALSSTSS
- EXPERIMENTAL_DETAILS: Radioligand displacement assay (3H-PGD2) on hCRTH2 receptor membranes
- Format: binding
- DETAILS: antagonistic activity; 3H-PGD2 displacement on HEK293-hCRTH2 membrane fragments
- Experimental: First, recombinant HEK293-hCRTH2 cells were detached from culture plates into 5 ml buffer A/plate (Buffer A: 5 mM Tris, 1 mM MgCl2-6H2O pH=7.4) using a rubber policeman. […] This assay mix was incubated for 90 minutes at room temperature and then filtered through a GF/C filter 96-well plate which was pre-soaked for 3 hours in 0.5% polyethyleneimine (PEI). […] Then, 40 μl of Microscint-40 (Packard) was added to each well and the retained radioactivity quantified in a Topcount (Packard).
To interpret pIC50, take it as minus log10 of a concentration measured in moles per litre.

Fill in: pIC50 of Cc1ccc2onc(CC(=O)N3CCc4ccccc4C3c3cc(Cl)ccc3OCC(=O)O)c2c1 (racemic) [Example 100] is ___
6.69

Lookup O=C(O)COc1ccc(Br)cc1C1c2cc(F)c(F)cc2CCN1C(=O)OCc1ccccc1 (racemic) [Example 10]
7.13

Lookup O=C(O)COc1ccc(Cl)cc1C1c2ccccc2CCN1C(=O)Cc1csc2ccc(Cl)cc12 (racemic) [Example 98]
6.91

Lookup O=C(O)COc1ccc(Cl)cc1C1c2ccccc2CCN1C(=O)OCC1CCCCC1 (racemic) [Example 262]
8.03

Lookup O=C(O)COc1ccc(F)cc1C1c2ccccc2CCN1C(=O)Oc1ccccc1 (racemic) [Example 169]
6.35

Lookup COc1ccc(COCC(=O)N2CCc3ccccc3C2c2cc(F)ccc2OCC(=O)O)cc1 (racemic) [Example 196]
6.84

Lookup COc1ccccc1CNC(=O)N1CCc2ccccc2C1c1cc(F)ccc1OCC(=O)O (racemic) [Example 201]
7.68

Lookup COc1ccc(COC(=O)N2CCc3ccccc3C2c2cc(Cl)ccc2OCC(=O)O)c(OC)c1 (racemic) [Example 254]
7.80

Lookup Cc1cccc(C)c1COC(=O)N1CCc2ccccc2C1c1cc(Cl)ccc1OCC(=O)O (racemic) [Example 247]
7.76

Lookup Cc1cc(C)n(COC(=O)N2CCc3ccccc3C2c2cc(Cl)ccc2OCC(=O)O)n1 (racemic) [Example 269]
8.31

Lookup O=C(O)COc1ccc(F)cc1C1c2ccccc2CCN1C(=O)NCCc1ccccc1 (racemic) [Example 200]
7.51
